- MEASURED_TARGET: Cyclooxygenase (Homo sapiens, UniProt P35354+P23219)
- PROTOCOL_DESCRIPTION: In vitro cyclooxygenase inhibitory activity against calcium ionophore (A23187) induced thromboxane formation in human whole blood
pIC50: −log10 of the molar value.
PARAMETER_MEASURED: pIC50

1) O=C1CCN(c2ccccc2)N1 | 4.92

* * *

- PROTOCOL_DESCRIPTION: Plasma Cmax in rat (PO dose)
- Type: ADME, organism-based
- Set-up: route oral
PARAMETER_MEASURED: Cmax (µM)

1) CSc1cccc(N2CCNC(=O)N2)c1 | 26
2) O=C1NCCN(c2cccc(OCc3ccccc3)c2)N1 | 2.5
3) CC1CN(c2cccc(Cl)n2)NC(=O)N1 (stereo not given) | 48
4) CC1CN(c2cccc(-c3cccs3)c2)NC(=O)N1 (stereo not given) | 1
5) CCC1CN(c2ccccc2)NC(=O)N1 (stereo not given) | 59
